species: Rattus norvegicus; test: Open TG-GATES - Regimen: Single; format: toxicity, organism-based, Sprague-Dawley; parameters: regimen Single, gender Male, age 6 weeks; settings: in vivo, po, 0 mg/kg, 6 h, tissue Blood, route gavage, dose level Control
Provide the reported MCV of each item.
// return numeric value only (unit: fL, not printed)

// MCV lookup, key: CN1C(=O)CN=C(c2ccccc2)c2cc(Cl)ccc21
64.6

// MCV lookup, key: COc1cc2c(c(OC)c1OC)-c1ccc(OC)c(=O)cc1[C@@H](NC(C)=O)CC2
65.4

// MCV lookup, key: Cc1ccc(C)c(OCCCC(C)(C)C(=O)O)c1
62.5

// MCV lookup, key: CCOC(=O)CCC(=O)O[C@H]1[C@H](O[C@@H]2[C@@H](C)[C@H](O[C@H]3C[C@@](C)(OC)[C@@H](O)[C@H](C)O3)[C@@H](C)C(=O)O[C@H](CC)[C@@](C)(O)[C@H](O)[C@@H](C)C(=O)[C@H](C)C[C@@]2(C)O)O[C@H](C)C[C@@H]1N(C)C [ERYTHROMYCIN ETHYLSUCCINATE]
65

// MCV lookup, key: NNC(=O)c1ccncc1
60.9

// MCV lookup, key: COC1=CC(=O)C[C@@H](C)[C@]12Oc1c(Cl)c(OC)cc(OC)c1C2=O
62.1

// MCV lookup, key: CN(C)CCN(Cc1cccs1)c1ccccn1
64.1

###

species: Rattus norvegicus; assay: Open TG-GATES - Regimen: Daily Repeat; type: toxicity, organism-based, Sprague-Dawley; design: regimen Daily Repeat, gender Male, age 6 weeks; details: in vivo, po, 300 mg/kg, 72 h, tissue Plasma, route gavage, dose level Middle, time 3 day
Quick rule for you: LDH under 200 IU/L gets True, anything else gets False.

Field: below-cutoff. Rule: recorded LDH strictly less than 200 IU/L. Subject: CCOC(=O)CCC(=O)O[C@H]1[C@H](O[C@@H]2[C@@H](C)[C@H](O[C@H]3C[C@@](C)(OC)[C@@H](O)[C@H](C)O3)[C@@H](C)C(=O)O[C@H](CC)[C@@](C)(O)[C@H](O)[C@@H](C)C(=O)[C@H](C)C[C@@]2(C)O)O[C@H](C)C[C@@H]1N(C)C [ERYTHROMYCIN ETHYLSUCCINATE]
False

Field: below-cutoff. Rule: recorded LDH strictly less than 200 IU/L. Subject: CCOc1ccc(NC(=O)CC(C)O)cc1 (stereo not given) [BUCETIN]
True

Field: below-cutoff. Rule: recorded LDH strictly less than 200 IU/L. Subject: COc1ccc2[nH]c([S+]([O-])Cc3ncc(C)c(OC)c3C)nc2c1 (stereo not given) [OMEPRAZOLE]
True

Field: below-cutoff. Rule: recorded LDH strictly less than 200 IU/L. Subject: COC1=CC(=O)C[C@@H](C)[C@]12Oc1c(Cl)c(OC)cc(OC)c1C2=O [GRISEOFULVIN]
True

###

species on record: Rattus norvegicus; experiment: Open TG-GATES - Regimen: Single; type: toxicity, organism-based, Sprague-Dawley; parameters: regimen Single, gender Male, age 6 weeks; conditions: in vivo, po, 100 mg/kg, 3 h, tissue Plasma, route gavage, dose level Low
Outcome Measure: DBIL
Don't forget the unit after the number, please.

// DBIL lookup, key: COC1=CC(=O)C[C@@H](C)[C@]12Oc1c(Cl)c(OC)cc(OC)c1C2=O [GRISEOFULVIN]
0.2 mg/dL

// DBIL lookup, key: CCOC(=O)CCC(=O)O[C@H]1[C@H](O[C@@H]2[C@@H](C)[C@H](O[C@H]3C[C@@](C)(OC)[C@@H](O)[C@H](C)O3)[C@@H](C)C(=O)O[C@H](CC)[C@@](C)(O)[C@H](O)[C@@H](C)C(=O)[C@H](C)C[C@@]2(C)O)O[C@H](C)C[C@@H]1N(C)C [ERYTHROMYCIN ETHYLSUCCINATE]
0.006 mg/dL

// DBIL lookup, key: COc1ccc2[nH]c([S+]([O-])Cc3ncc(C)c(OC)c3C)nc2c1 (centres undefined) [OMEPRAZOLE]
0.078 mg/dL

// DBIL lookup, key: NC(N)=Nc1nc(CSCCC(N)=NS(N)(=O)=O)cs1 [FAMOTIDINE]
0.076 mg/dL

Every entry's value here was drawn from ChEMBL document CHEMBL3885861.
